Biological target: Glucocorticoid receptor (Homo sapiens)
Experiment: qHTS assay for small molecule agonists of glucocorticoid receptor signaling (AID 588532);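 note: 100% = dexamethasone at 0.1 µM and 0% = DMSO only wells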
Details: HeLa MMTV-bla, beta-lactamase ratio, agonist, 18 h; stronger effect = higher value; percent of dexamethasone control, DMSO zero
Records with an inconclusive call do not appear.

COMPOUND | activation / %
Nc1nc(Cl)nc2c1ncn2[C@H]1C[C@H](O)[C@@H](CO)O1 | -6.36
Nc1ccc(S(N)(=O)=O)cc1 | 9.11
CCCCC(CC)COC(=O)C(C#N)=C(c1ccccc1)c1ccccc1 (stereo not drawn) | -1.93
CC(=O)N1CCN(c2ccc(OC[C@H]3CO[C@](Cn4ccnc4)(c4ccc(Cl)cc4Cl)O3)cc2)CC1 | 3.09
COc1cc(OC)c(C(=O)CCCN2CCCC2)c(OC)c1 | 4.51
N[C@@H](Cc1cc(I)c(Oc2cc(I)c(O)c(I)c2)c(I)c1)C(=O)O | -13.7
O=c1c(O)c(-c2ccc(O)cc2O)oc2cc(O)cc(O)c12 | -17.5
CCN(CC)C(=S)SSC(=S)N(CC)CC | 3.99

====

Target: Flap endonuclease 1 (Homo sapiens) (UniProt P39748)
Sequence (P39748 whole entry, looked up): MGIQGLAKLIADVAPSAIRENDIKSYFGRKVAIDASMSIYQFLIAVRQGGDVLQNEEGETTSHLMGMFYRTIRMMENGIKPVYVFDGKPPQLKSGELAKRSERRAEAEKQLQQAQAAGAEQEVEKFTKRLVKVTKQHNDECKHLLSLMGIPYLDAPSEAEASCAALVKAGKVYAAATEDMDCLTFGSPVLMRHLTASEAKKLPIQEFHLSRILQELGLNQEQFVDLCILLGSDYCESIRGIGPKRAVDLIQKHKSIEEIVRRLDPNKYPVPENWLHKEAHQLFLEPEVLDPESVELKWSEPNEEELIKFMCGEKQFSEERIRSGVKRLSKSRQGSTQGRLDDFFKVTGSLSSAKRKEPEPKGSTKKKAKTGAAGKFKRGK
Test: qHTS Validation Assay for the Inhibitors of Human Flap endonuclease 1 (FEN1) (AID 488816); note: potency is the fitted concentration of half-maximal effect
Conditions: FEN1 nuclease activity, fluorogenic DNA substrate; series mostly up to 57.1 µM
Calls of active or inactive are those of the source. Calls follow the shape of the dose curve; as a rule, active = well fitted inhibition curve with a large enough effect; inconclusive = small, poorly fitted or top-dose-only effect; inactive = flat fitted curve, though single readings scatter.
MEASURED_ATTRIBUTE: Potency

MOLECULE | MEASURED_RESULT
CCOC(=O)C(C)Oc1cccc2c(=O)n(CC(=O)Nc3ccc4c(c3)OCCO4)ccc12 (stereo not given) | inactive
O=C1c2c(O)cc(O)cc2OC(c2ccc(O)c(O)c2)C1O (stereo not given) | 2.67 µM (active)
O=Nc1c(-c2c(O)[nH]c3cc(Br)ccc23)[nH]c2ccccc12 | inactive
Nc1nc(N)c(N=O)c(OCC2CCCCC2)n1 | inactive
CN(C)CCCC1(c2ccc(F)cc2)OCc2cc(C#N)ccc21 (stereo not given) | inactive
CNC[C@H](O)c1ccc(O)c(O)c1 | 10.6 µM (active)
OC(CN1CCN(c2cccc(Cl)c2)CC1)C(c1ccccc1)c1ccccc1 (stereo not given) | inactive
O=c1c(O)c(-c2ccc(O)cc2O)oc2cc(O)cc(O)c12 | 2.38 µM (active)
O=c1c(O)c(-c2cc(O)c(O)c(O)c2)oc2cc(O)cc(O)c12 | 1.5 µM (active)
O=C1c2ccccc2-c2n[nH]c3cccc1c23 | inactive
O=c1cc(N2CCOCC2)oc2c(-c3ccccc3)cccc12 | inactive
Oc1ccc2ccccc2c1SSc1c(O)ccc2ccccc12 | inactive
Nc1nc(OCc2ccccc2)c2[nH]cnc2n1 | inactive
Nc1ccn([C@@H]2O[C@H](CO)[C@@H](O)C2O)c(=O)n1 (stereo not given in full) | inactive
NCCCCNCCCN | inactive
C[C@@H](N)C1CCC(C(=O)Nc2ccncc2)CC1 (stereo not given in full) | inactive
O=C1NC(=O)C(c2ccccc2[N+](=O)[O-])=C1Nc1ccc(O)c(Cl)c1 | 18.9 µM (active)
CC1(C)C(=O)N(CCN2CCC(C(=O)c3ccc(F)cc3)CC2)c2ccccc21 | inactive
Oc1ccc(-c2nc(-c3ccc(F)cc3)c(-c3ccncc3)[nH]2)cc1 | inactive
O=c1ccc2ccc(O)c(O)c2o1 | 9.47 µM (active)
